The origin of these recorded values is patent US20160297884A1.

- system: T1, Human BCMA (human, UniProt Q02223 1-54, limits assumed)
- T1 construct: Soluble analyte in SPR; construct not described; also called huBCMA; B-cell maturation antigen
- T1 sequence (looked up): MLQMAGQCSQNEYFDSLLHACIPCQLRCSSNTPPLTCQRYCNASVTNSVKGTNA
- protocol: SPR, IgG immobilised, 37 C
Measured T ½ values are reported for all entries that follow.
Give the quantity in min, number only.

[
  {
    "binder": "L3.PY/L3.KF/H3.TAQ (antibody, V domains shown, IgG) VH: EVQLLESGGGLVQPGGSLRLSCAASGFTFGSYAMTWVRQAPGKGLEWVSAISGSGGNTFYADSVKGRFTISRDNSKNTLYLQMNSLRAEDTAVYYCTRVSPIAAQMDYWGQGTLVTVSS VL: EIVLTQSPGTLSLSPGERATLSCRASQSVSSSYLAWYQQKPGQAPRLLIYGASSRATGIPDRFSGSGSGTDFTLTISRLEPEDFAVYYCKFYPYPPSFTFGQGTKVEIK",
    "T ½ (min)": 7.12
  },
  {
    "binder": "L3.PY/H3.YA (antibody, V domains shown, IgG) VH: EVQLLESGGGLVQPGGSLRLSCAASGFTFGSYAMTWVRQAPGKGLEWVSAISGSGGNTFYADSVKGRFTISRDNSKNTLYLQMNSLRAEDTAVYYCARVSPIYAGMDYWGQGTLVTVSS VL: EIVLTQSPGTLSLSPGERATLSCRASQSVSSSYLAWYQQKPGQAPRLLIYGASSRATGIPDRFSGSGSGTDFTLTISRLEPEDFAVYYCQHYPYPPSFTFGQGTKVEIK",
    "T ½ (min)": 9.82
  }
]

We next turn to a different binder, shown below.
[in] Look at this binder and give its reported T ½. L3.PY/L1.PS/H3.TAQ (antibody, V domains shown, IgG) VH: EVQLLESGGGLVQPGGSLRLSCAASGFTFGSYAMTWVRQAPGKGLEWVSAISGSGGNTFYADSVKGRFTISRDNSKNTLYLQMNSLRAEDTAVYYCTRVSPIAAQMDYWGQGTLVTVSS VL: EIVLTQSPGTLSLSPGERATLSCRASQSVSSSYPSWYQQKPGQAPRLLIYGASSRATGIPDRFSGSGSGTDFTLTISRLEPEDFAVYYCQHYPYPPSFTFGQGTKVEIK
[out] 4.7
